Biological target: human factor Xa (Homo sapiens)
Construct: purchased Enzyme Research Laboratories, Inc; South Bend Ind
Sequence (P00742 235-488 limits assumed): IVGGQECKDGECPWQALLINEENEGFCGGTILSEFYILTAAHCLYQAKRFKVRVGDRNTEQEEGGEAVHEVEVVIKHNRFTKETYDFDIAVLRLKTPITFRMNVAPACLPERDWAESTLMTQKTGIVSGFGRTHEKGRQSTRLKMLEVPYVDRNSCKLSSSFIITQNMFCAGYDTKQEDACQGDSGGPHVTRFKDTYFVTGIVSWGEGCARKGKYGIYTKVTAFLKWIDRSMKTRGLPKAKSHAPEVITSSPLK
Sequence (P00742 41-179 partner limits assumed): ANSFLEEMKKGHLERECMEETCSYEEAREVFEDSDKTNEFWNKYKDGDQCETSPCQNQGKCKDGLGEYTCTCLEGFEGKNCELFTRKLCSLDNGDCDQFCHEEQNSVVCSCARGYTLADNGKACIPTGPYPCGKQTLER
Test: Factor Xa chromogenic assay
Format: biochemical
Conditions: Table 2; read-out: Ki Xa
pKi: −log10 of the molar value.

[
  {
    "substance": "N-alpha-tosyl-Gly-p-amidinophenylalanine methyl ester [TENSTOP, reference compound]",
    "pKi": 5.70
  },
  {
    "substance": "YIRLAAET [Ac-Y-I-R-L-A-A-E-T, Ac-Y-I-R-L-A-A-E-T (SEQ ID NO:9)]",
    "pKi": 5.82
  }
]

---

Target: human thrombin (Homo sapiens)
Construct: purchased Enzyme Research Laboratories, Inc; South Bend Ind
Experiment: Thrombin chromogenic assay
Assay type: biochemical
Conditions: Table 2
pKi: −log10 of the molar value.

[
  {
    "substance": "N-alpha-tosyl-Gly-p-amidinophenylalanine methyl ester [TENSTOP, reference compound]",
    "test.system": "human thrombin (Homo sapiens)",
    "pKi": 5.70
  }
]
